Taken from ChEMBL document CHEMBL1150837.

ASSAY TEXT: Cytotoxicity against human neutrophils assessed as inhibition of cell viability at 10 uM after 16 to 40 hrs by MTT assay
Assay type: cell-based, Neutrophil
TEST CONTEXT: read-out: INH
Measured cytotoxicity at 10 µM by item
Be sure to follow the number with its unit.

# MOLECULE, cytotoxicity at 10 µM
data = [
    ("CC1=CCC[C@H]2[C@@H](C)[C@@](C)(CC3=C(O)C(=O)C=C(NCCS(=O)(=O)O)C3=O)CC[C@]12C [DYSIDINE]", "0.3%"),
]

Kindly review the next molecule as well.
Lookup: cytotoxicity at 10 µM for COC1=CC(=O)C(O)=C(C[C@@]2(C)CC[C@]3(C)C(C)=CCC[C@H]3[C@H]2C)C1=O [BOLINAQUINONE] ?
Found: 14%

====

Each record here notes measured IC50.
MEASURED ON: Phospholipase A2, membrane associated (Homo sapiens, UniProt P14555)
Sequence (P14555 whole entry): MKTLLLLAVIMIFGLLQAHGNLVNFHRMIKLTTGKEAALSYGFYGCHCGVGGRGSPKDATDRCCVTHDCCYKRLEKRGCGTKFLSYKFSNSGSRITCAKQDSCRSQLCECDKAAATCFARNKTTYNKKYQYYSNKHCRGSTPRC
ASSAY TEXT: Inhibition of human synovial recombinant group 2 secretory phospholipase A2 by liquid scintillation counting
Units required after the number.

# COMPOUND STRUCTURE, IC50
records = [
    ("COC1=CC(=O)C(O)=C(C[C@@]2(C)CC[C@]3(C)C(C)=CCC[C@H]3[C@H]2C)C1=O", "200 nM"),
]

Consider the record given below.
Lookup: Field request: IC50 | item: "CC1=CCC[C@H]2[C@@H](C)[C@@](C)(CC3=C(O)C(=O)C=C(NCCS(=O)(=O)O)C3=O)CC[C@]12C"
Found: 2000 nM

====

MEASURED ON: Phospholipase A2, major isoenzyme (Sus scrofa)
Sequence (P00592 whole entry): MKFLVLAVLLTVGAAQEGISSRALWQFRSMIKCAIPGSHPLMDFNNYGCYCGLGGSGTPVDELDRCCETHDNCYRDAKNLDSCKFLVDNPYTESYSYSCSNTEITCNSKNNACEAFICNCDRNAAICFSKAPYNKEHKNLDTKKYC
ASSAY TEXT: Inhibition of pig pancreatic group 1 secretory phospholipase A2 by liquid scintillation counting
MEASUREMENT KIND: IC50 (nM)
Numeric answer only, unit nM assumed.

Lookup: Return reported IC50; argument: "COC1=CC(=O)C(O)=C(C[C@@]2(C)CC[C@]3(C)C(C)=CCC[C@H]3[C@H]2C)C1=O"
Found: 400
